- target.entity: SMYD3 (Homo sapiens (Human), UniProt Q9H7B4)
- Sequence (Q9H7B4 whole entry): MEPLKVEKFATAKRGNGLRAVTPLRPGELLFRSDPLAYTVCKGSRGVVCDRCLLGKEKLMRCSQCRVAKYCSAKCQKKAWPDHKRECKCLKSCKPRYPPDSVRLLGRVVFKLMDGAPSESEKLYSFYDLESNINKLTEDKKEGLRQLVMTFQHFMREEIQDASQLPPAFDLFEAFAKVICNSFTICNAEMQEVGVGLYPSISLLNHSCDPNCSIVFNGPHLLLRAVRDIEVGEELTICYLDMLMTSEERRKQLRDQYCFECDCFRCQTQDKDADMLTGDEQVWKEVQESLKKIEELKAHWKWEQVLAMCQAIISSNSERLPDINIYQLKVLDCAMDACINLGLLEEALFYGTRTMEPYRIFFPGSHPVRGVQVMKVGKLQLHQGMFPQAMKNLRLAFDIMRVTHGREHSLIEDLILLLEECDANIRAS
- protocol.text: SMYD3 cell assay (Trimethyl-MEKK2 In-Cell Western in 293T/17 cells)
- Assay type: cell-based
- condition.details: Table 2A; read-out: SMYD3 Cell IC50
// returns label 0 unless IC50 is strictly below 70 nM, in which case label 1

These recorded examples may help you get a feel for the data.
{"columns": ["compound", "target.entity", "qualitative.label"],
 "data": [
  ["C[C@@H]1C[C@H](NC(=O)c2cc(C3CC3)on2)CCN1S(=O)(=O)CC1CCN(CCc2ccccc2)CC1", "SMYD3 (Homo sapiens (Human), UniProt Q9H7B4)", "label 0"],
  ["C[C@H]1C[C@@H](NC(=O)c2cc(C3CC3)on2)CCN1S(=O)(=O)N1CC2CC1CN2 (stereo partly shown)", "SMYD3 (Homo sapiens (Human), UniProt Q9H7B4)", "label 0"]
]}

Is it true that IC50 reported for O=C(N[C@H]1C[C@H]2CC[C@@H](C1)N2S(=O)(=O)CC1CCN(CCN2CCCCC2)CC1)c1cc(C2CC2)on1 is less than 70 nM?
label 0

One more compound: C[C@H]1C[C@@H](NC(=O)c2cc(C3CC3)on2)CCN1S(=O)(=O)N1C[C@@H]2C[C@H]1CN2C
label 0

Try C[C@H]1C[C@@H](NC(=O)c2cc(C3CC3)on2)CCN1S(=O)(=O)N1CC2CCC1CN2 (stereo partly shown) next.
label 0

Please give the result for COCCCN1CCC(CS(=O)(=O)N2[C@@H]3CC[C@H]2C[C@@H](NC(=O)c2cc(C4CC4)on2)C3)CC1 too.
label 1
